# method.description: Pharmacokinetic analysis of GNQ after IV injections, BBB permeability
# Format: in vivo
# condition.parameters: mouse, brain, normal mice, read-out: accumulation in the brain, % of plasma levels
measurement.kind: Kp

**Query** Quick check: Kp of O=C1NC2(c3ccccc31)c1ccccc1C1C(=O)c3cccc(O)c3C(=O)C12 (stereo not shown) ?
**Result** ≤ 0.11
